IC50 by entry:
# measurement-target: NLRP3 (Homo sapiens)
# Construct: endogenous in cells
# experiment-notes: IL-1β (interleukin-1β) secretion in IFN-γ-differentiated, LPS/ATP-stimulated THP-1 cells (half inhibition rate of NLRP3)
# condition-label: IFN-γ 25 ng/mL, LPS 50 ng/mL, ATP 5 mM
# Description: Remove THP-1 cells from liquid nitrogen and place in a 37° C. water bath until ice melt. Add the cells to 5 mL of warm cell culture medium and centrifuge at 1,000 rpm for 5 min. Discard the supernatant and resuspend and culture in a new cell culture medium. THP-1 cells are cultured in the culture medium and passaged every 2-3 days. […] 2.4.12 Read the cell plate at 450 nm with a microplate reader.

compound | IC50
C[C@]1(O)C[C@@H](Nc2nnc(-c3ccc(C(F)(F)F)cc3O)c3ncccc23)C1 | 11.3 nM
C[C@]1(O)C[C@@H](Nc2nnc(-c3ccc(C(F)(F)F)cc3O)c3c2CCC3)C1 | 47.4 nM
Cc1cc(C)c(-c2cnc(N[C@@H]3CCCN(CC(=O)N[C@@H](C)CO)C3)nn2)c(O)c1 | 193 nM
Cc1nc(N[C@@H]2CCCN(C3CCC3)C2)nnc1-c1ccc(C(F)(F)F)cc1O | 11.3 nM
CN1CCC[C@@H](Nc2nnc(-c3ccc(Cl)cc3O)c3cnccc23)C1 | 3.8 nM
CN1CCC[C@@H](Nc2nnc(-c3ccc(C(F)(F)F)cc3O)c3ccn(C)c23)C1 | 16.1 nM
Cc1nc(N[C@@H]2CCCN(C(C)CO)C2)nnc1-c1ccc(C(F)(F)F)cc1O (some centres unmarked) | 6.5 nM
OCCN1CCC[C@@H](Nc2nnc(-c3ccc(Cl)cc3O)c3ccc(F)cc23)C1 | 2.4 nM

====

# measurement-target: NLRP3 (Homo sapiens, UniProt Q96P20)
# Construct: endogenous in cells; host or cells: THP-1 cells (IFN-γ differentiated, LPS primed, ATP stimulated)
# Sequence (Q96P20 whole entry): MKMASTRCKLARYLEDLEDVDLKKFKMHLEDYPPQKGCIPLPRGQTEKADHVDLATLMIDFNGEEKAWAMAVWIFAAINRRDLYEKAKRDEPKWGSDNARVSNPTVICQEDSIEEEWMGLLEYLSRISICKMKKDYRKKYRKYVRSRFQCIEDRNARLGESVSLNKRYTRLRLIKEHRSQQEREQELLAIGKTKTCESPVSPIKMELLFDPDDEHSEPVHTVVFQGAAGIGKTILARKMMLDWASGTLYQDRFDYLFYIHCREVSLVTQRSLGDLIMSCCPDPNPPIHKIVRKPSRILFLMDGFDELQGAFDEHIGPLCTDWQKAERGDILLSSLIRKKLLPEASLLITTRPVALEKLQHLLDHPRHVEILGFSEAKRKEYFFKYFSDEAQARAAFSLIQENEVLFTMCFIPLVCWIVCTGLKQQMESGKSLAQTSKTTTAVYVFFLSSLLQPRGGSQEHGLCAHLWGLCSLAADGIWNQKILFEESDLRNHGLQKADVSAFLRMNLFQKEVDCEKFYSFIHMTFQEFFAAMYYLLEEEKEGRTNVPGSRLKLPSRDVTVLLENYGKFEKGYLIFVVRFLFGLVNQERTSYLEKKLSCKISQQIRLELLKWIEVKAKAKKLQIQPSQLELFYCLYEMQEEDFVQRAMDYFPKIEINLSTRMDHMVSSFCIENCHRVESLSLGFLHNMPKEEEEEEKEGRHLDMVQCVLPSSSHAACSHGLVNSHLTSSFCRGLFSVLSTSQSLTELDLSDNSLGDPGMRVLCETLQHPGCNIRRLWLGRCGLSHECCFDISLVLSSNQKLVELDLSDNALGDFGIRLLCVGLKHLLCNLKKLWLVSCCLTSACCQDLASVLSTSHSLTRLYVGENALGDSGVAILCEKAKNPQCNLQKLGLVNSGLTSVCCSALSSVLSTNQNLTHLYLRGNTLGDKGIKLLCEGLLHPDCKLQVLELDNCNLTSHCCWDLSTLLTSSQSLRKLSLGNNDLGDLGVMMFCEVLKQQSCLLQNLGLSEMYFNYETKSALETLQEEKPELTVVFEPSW
# experiment-notes: IL-1β (interleukin-1β) secretion in IFN-γ-differentiated, LPS/ATP-stimulated THP-1 cells (half inhibition rate of NLRP3)
# Assay type: cell-based
# condition-label: IFN-γ 25 ng/mL, LPS 50 ng/mL, ATP 5 mM
# Experimental: Remove THP-1 cells from liquid nitrogen and place in a 37° C. water bath until ice melt. Add the cells to 5 mL of warm cell culture medium and centrifuge at 1,000 rpm for 5 min. Discard the supernatant and resuspend and culture in a new cell culture medium. THP-1 cells are cultured in the culture medium and passaged every 2-3 days. […] 2.4.12 Read the cell plate at 450 nm with a microplate reader.
pIC50: −log10 of the molar value.
List of pIC50 values.

molecule | pIC50
Cc1cc(C)c(-c2cnc(NC3CCCN4CCCC34)nn2)c(O)c1 (stereo not shown) | 7.49
Cc1cc(C)c(-c2cnc(N[C@@H]3CCCN(CC(N)=O)C3)nn2)c(O)c1 | 6.42
CN1CCC[C@@H](Nc2nnc(-c3ccc(C(F)(F)F)cc3O)c3cocc23)C1 | 7.39
Oc1cc(C(F)(F)F)ccc1-c1nnc(N[C@@H]2CCCC[C@H]2O)c2ncccc12 | 8.28
